SUBJECT OF TEST: hA2A AR (Homo sapiens, UniProt P29274)
Sequence (P29274 whole entry): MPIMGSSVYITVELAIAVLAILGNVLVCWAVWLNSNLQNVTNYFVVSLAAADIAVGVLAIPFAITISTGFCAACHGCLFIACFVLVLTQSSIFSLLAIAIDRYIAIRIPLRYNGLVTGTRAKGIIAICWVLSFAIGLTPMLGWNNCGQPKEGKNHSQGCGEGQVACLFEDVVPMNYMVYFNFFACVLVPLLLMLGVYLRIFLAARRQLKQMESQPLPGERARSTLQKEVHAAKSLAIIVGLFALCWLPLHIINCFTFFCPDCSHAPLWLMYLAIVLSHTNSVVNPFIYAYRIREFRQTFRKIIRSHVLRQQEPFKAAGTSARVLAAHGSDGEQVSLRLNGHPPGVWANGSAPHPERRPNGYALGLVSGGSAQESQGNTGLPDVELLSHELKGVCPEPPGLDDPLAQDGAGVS
ASSAY NAME: Cyclic AMP assay in CHO cells expressing hA2A AR (modulation of basal cAMP)
CONDITION: cyclic AMP assay, hA2A CHO cells

# MOLECULE SMILES, Pharmacological Behavior
measured = [
    ("Nc1nc(NCCN2CCN(C(=O)c3ccco3)CC2)nc2sc(-c3ccco3)nc12", "Inverse agonist"),
    ("Nc1nc(NCCN2CCN(c3ccccc3)CC2)nc2sc(-c3ccco3)nc12", "Inverse agonist"),
    ("Nc1nc(NCC2CCN(Cc3ccccc3)CC2)nc2sc(-c3ccco3)nc12", "Inverse agonist"),
    ("COCCOc1ccc(N2CCN(CCNc3nc(N)c4nc(-c5ccco5)sc4n3)CC2)cc1", "Inverse agonist"),
]

----------
SUBJECT OF TEST: hA2A AR (Homo sapiens)
ASSAY NAME: Cyclic AMP assay in CHO cells expressing hA2A AR (modulation of basal cAMP)
CONDITION: cyclic AMP assay, hA2A CHO cells, mean ± SEM
Please provide measured Intrinsic Activity for the entries that follow.

# MOLECULE SMILES, SUBJECT OF TEST, Intrinsic Activity
rows = [
    ("Nc1nc(NCCN2CCN(c3ccccc3)CC2)nc2sc(-c3ccco3)nc12", "hA2A AR (Homo sapiens)", "−52 ± 4"),
]

Would you be so kind as to report Intrinsic Activity for each listed record?
1. COCCOc1ccc(N2CCN(CCNc3nc(N)c4nc(-c5ccco5)sc4n3)CC2)cc1
2. Nc1nc(NCC2CCN(Cc3ccccc3)CC2)nc2sc(-c3ccco3)nc12
3. Nc1nc(NCCN2CCN(C(=O)c3ccco3)CC2)nc2sc(-c3ccco3)nc12

−51 ± 5
−64 ± 4
−67 ± 5

----------
Please provide measured inhibition at 10 µM for the entries that follow.
SUBJECT OF TEST: hA2B AR (Homo sapiens)
Construct: expressed in transfected cells; host or cells: CHO cells
Sequence (P29275 whole entry): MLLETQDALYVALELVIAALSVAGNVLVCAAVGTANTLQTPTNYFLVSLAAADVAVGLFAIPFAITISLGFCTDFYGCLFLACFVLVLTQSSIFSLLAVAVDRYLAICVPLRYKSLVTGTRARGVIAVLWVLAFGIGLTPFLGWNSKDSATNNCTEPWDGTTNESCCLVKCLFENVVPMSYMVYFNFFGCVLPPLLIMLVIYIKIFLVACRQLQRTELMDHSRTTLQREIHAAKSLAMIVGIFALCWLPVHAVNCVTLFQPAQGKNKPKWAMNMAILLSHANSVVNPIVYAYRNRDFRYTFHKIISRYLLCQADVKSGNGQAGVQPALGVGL
ASSAY NAME: Inhibition of NECA stimulated adenylyl cyclase activity (cAMP assay) in CHO cells expressing hA2B receptor
Assay type: cell-based
CONDITION: CHO; at 10 μM of tested compound, cAMP assay; read-out: hA2BAR percentage of inhibition (I%)
Numbers only, in %.

Study these solved cases before continuing.
# MOLECULE SMILES, VALUE UNITS, inhibition at 10 µM
rows = [
    ("CN(C)CCN1CCN(c2nc(N)c3nc(-c4ccco4)sc3n2)CC1", "%", 23),
    ("CCOC(=O)c1ccc(N2CCN(CCNc3nc(N)c4nc(-c5ccco5)sc4n3)CC2)cc1", "%", 26),
    ("CCOC(=O)c1ccc(CNc2nc(N)c3nc(-c4ccco4)sc3n2)cc1", "%", 17),
    ("Nc1nc(N2CCC(Cc3ccccc3)CC2)nc2sc(-c3ccco3)nc12", "%", 21),
    ("COCCN1CCC(CNc2nc(N)c3nc(-c4ccco4)sc3n2)CC1", "%", 11),
    ("Nc1nc(N2CCN(CCN3CCCC3)CC2)nc2sc(-c3ccco3)nc12", "%", 19),
    ("COc1ccc(CN2CCC(CNc3nc(N)c4nc(-c5ccco5)sc4n3)CC2)cc1", "%", 24),
    ("COCCOc1ccc(N2CCN(CCNc3nc(N)c4nc(-c5ccco5)sc4n3)CC2)cc1", "%", 17),
]

Would you be so kind as to report inhibition at 10 µM for each listed record?
1. Nc1nc(N2CCN(C(=O)c3ccco3)CC2)nc2sc(-c3ccco3)nc12
2. Nc1nc(NCCN2CCN(C(=O)c3ccco3)CC2)nc2sc(-c3ccco3)nc12
3. Nc1nc(NCCN2CCN(c3ccccc3)CC2)nc2sc(-c3ccco3)nc12
4. Nc1nc(NCCN2CCN(CCc3ccccc3)CC2)nc2sc(-c3ccco3)nc12
5. Nc1nc(NCCN2CCN(Cc3ccccc3)CC2)nc2sc(-c3ccco3)nc12
6. Nc1nc(NCCN2CCC(Cc3ccccc3)CC2)nc2sc(-c3ccco3)nc12

1: 10; 2: 16; 3: 13; 4: 29; 5: 26; 6: 22
